Conditions: human, 40000 µM
Description: Solubility ratio ([HbS+drug (40 mM)]/[HbS-drug])
measure_name: Solubility ratio

- molecular_string: "CC(C)(Oc1ccc(Cl)cc1)C(=O)Oc1ccccc1C(=O)O"
  Solubility ratio: 1.109
- molecular_string: "O=C(O)COc1ccc(Cl)cc1"
  Solubility ratio: 1.287
- molecular_string: "Cc1cc(OCC(=O)O)cc(C)c1Br"
  Solubility ratio: 1.092
- molecular_string: "O=C(O)COc1ccc2c(c1)Cc1ccccc1-2"
  Solubility ratio: 1.113
- molecular_string: "O=C(O)COCc1ccc(Cl)cc1"
  Solubility ratio: 1.396
- molecular_string: "O=C(O)COc1ccc(Cl)c(Cl)c1"
  Solubility ratio: 1.339
- molecular_string: "O=C(O)COCc1ccc(Oc2ccccc2)cc1"
  Solubility ratio: 1.162
- molecular_string: "CSc1ccc(OCC(=O)O)cc1"
  Solubility ratio: 1.223
- molecular_string: "O=C(O)CSc1ccc(Cl)cc1"
  Solubility ratio: 1.296
- molecular_string: "O=C(O)CSc1c(F)c(F)c(F)c(F)c1F"
  Solubility ratio: 1.236
- molecular_string: "Cc1ccc(COCC(=O)O)cc1C"
  Solubility ratio: 1.289
- molecular_string: "COc1cc(OCC(=O)O)cc(OC)c1OC"
  Solubility ratio: 1.047
- molecular_string: "Cc1ccc(C)c(OCCCC(C)(C)C(=O)O)c1"
  Solubility ratio: 1.234
- molecular_string: "O=C(O)COCc1ccc(Cl)cc1Cl"
  Solubility ratio: 1.246

The origin of these recorded values is ChEMBL document CHEMBL1122711.
